Where do these numbers come from? They come from PubChem BioAssay AID1626.

- Test system: M. tuberculosis H37Rv growth inhibition
- assay protocol: M. tuberculosis H37Rv growth inhibitors, H37Rv strain (AID 1626)
- assay context: measured here: IC90 against H37Rv
IC90 for assorted compounds
Use µM as the unit, but write only the number.

{"columns": ["compound", "measured on", "value"],
 "data": [
  ["CC1(C)CC(=O)C2=C(C1)OC(N)=C([N+](=O)[O-])C2c1ccc(C#N)s1 (stereo unspecified)", "M. tuberculosis H37Rv growth inhibition", 15.2],
  ["CCOC(=O)N1CCN(C(=O)CSc2nc(-c3cccc(C)c3)ns2)CC1", "M. tuberculosis H37Rv growth inhibition", 0.828]
]}

Pending compound:
IC90 recorded for this compound, CC(C)OC(=O)CSc1ncnc2c1cnn2-c1ccccc1 , is 25.2

----------
- Test system: M. tuberculosis H37Rv growth inhibition
- assay protocol: M. tuberculosis H37Rv growth inhibitors, H37Rv strain (AID 1626)
pIC50: −log10 of the molar value.
Recorded measurements of pIC50, one per entry

# example entries with known answers
{"columns": ["molecule", "measured on", "readout label", "value"],
 "data": [
  ["COc1ccc(N2CCN(Cc3nc(N)nc(Nc4ccc(C)c(Cl)c4)n3)CC2)cc1", "M. tuberculosis H37Rv growth inhibition", "pIC50", 6.26],
  ["CN(CC(=O)Nc1ccc(Cl)c(Cl)c1)Cc1nnc(-c2ccc(F)cc2)o1", "M. tuberculosis H37Rv growth inhibition", "pIC50", 4.80],
  ["CC(C)(C)c1ccc(C(=O)/C=C2\\NC(=O)CS2)cc1", "M. tuberculosis H37Rv growth inhibition", "pIC50", 4.93],
  ["COc1ccc(OC)c(C2C3=C(N=c4s/c(=C\\c5cccc(O)c5)c(=O)n42)c2ccccc2CC3)c1 (stereo unspecified)", "M. tuberculosis H37Rv growth inhibition", "pIC50", 4.96],
  ["C=CCNc1cc(C(F)(F)F)nc(-c2ccccn2)n1", "M. tuberculosis H37Rv growth inhibition", "pIC50", 5.31]
]}

molecule CCC(=O)Nc1ccc(-c2nc3ccccc3c(=O)o2)cc1 , pIC50 observed: 4.75

Value of measured pIC50 for the entry COCCN=C1Sc2nc3ccc(C)cc3cc2CN1Cc1cccs1 : 4.98

----------
- System: M. tuberculosis H37Rv growth inhibition
- assay protocol: M. tuberculosis H37Rv growth inhibitors, H37Rv strain (AID 1626)
readout label: IC50

{"columns": ["compound", "readout label", "value"],
 "data": [
  ["CCCOC(=O)CSc1nnc(-c2cc(OC)c(OC)c(OC)c2)o1", "IC50", "0.728 µM"],
  ["COc1ccc(CNC[C@@H](CCCCN(C)Cc2ccc(OC)cc2)N2C[C@H](c3ccccc3)N(CCc3ccc(Cl)c(Cl)c3)C(=O)C2=O)cc1", "IC50", "12.2 µM"],
  ["Cc1ccc(C)c(N=Nc2nc3ccccc3n2C)c1", "IC50", "1.33 µM"],
  ["NC1=NC[C@H](Cc2ccccc2)N1CCCCC1CCCCC1", "IC50", "10 µM"],
  ["Cc1cc([N+](=O)[O-])ccc1NC(=O)CN1C2CCC1CC(NC(=O)NC13CC4CC(CC(C4)C1)C3)C2 (centres undefined)", "IC50", "3.02 µM"],
  ["Cc1cc(N2CCN(c3ccccc3)CC2)nc(-n2nc(C)cc2C)n1", "IC50", "8.84 µM"],
  ["COc1ccc(CCNC(=O)NC23CC4CC(CC(C4)C2)C3)cc1", "IC50", "12.9 µM"],
  ["Cc1cc(C)n(-c2nc(NC(C)C)nc(NC(C)C)n2)n1", "IC50", "0.961 µM"]
]}

Measured IC50, O=C(Nc1nccs1)c1cc2c(s1)CCCCC2 : 5.64 µM

Value of measured IC50 for the entry O=C(CCc1ccc(Oc2cc([N+](=O)[O-])cc([N+](=O)[O-])c2)cc1)N1CCCCCC1 : 7.53 µM

In plain terms, Cc1ccc(C(=O)Oc2cccc(NC(=O)c3ccccc3)c2)cc1C has a documented IC50 of 7.76 µM

Entry under test: CCOC(=O)c1ccc(NC(=O)CCc2nc(-c3cccc(C)c3)no2)cc1 . Its IC50 was 2.76 µM
